These measurements were taken from patent US20240384350A1.

Target: EGFR L747S (Homo sapiens, UniProt P00533, L747S)
Construct: expressed in transfected cells; host or cells: Ba/F3
Test: Ba/F3 drug screening, Cell Titer Glo, IC50 Mut/WT
Type: cell-based
Conditions: PACC; L747S; Ba/F3; 72 hours
OBSERVATION TYPE: ratio of IC50 for cells with mutant EGFR to IC50 for cells with wildtype EGFR (Mut/WT)
Would you mind answering with just the numeric figure?

# input # value lookup — system EGFR L747S (Homo sapiens, UniProt P00533, L747S), readout ratio of IC50 for cells with mutant EGFR to IC50 for cells with wildtype EGFR (Mut/WT), item COc1cc2ncnc(Nc3ccc(F)c(Cl)c3)c2cc1NC(=O)/C=C/CN1CCCCC1
# output 0.006377

# input # value lookup — system EGFR L747S (Homo sapiens, UniProt P00533, L747S), readout ratio of IC50 for cells with mutant EGFR to IC50 for cells with wildtype EGFR (Mut/WT), item CNC(=O)CN1CCC(Oc2cc3c(Nc4cccc(Cl)c4F)ncnc3cc2OC)CC1
# output 0.005189

# input # value lookup — system EGFR L747S (Homo sapiens, UniProt P00533, L747S), readout ratio of IC50 for cells with mutant EGFR to IC50 for cells with wildtype EGFR (Mut/WT), item COc1cc2ncnc(Nc3cccc(Cl)c3F)c2cc1OC(=O)N1CCN(C)C[C@H]1C
# output 0.08122

# input # value lookup — system EGFR L747S (Homo sapiens, UniProt P00533, L747S), readout ratio of IC50 for cells with mutant EGFR to IC50 for cells with wildtype EGFR (Mut/WT), item CN(C)C/C=C/C(=O)Nc1cc2c(Nc3ccc(Cl)c(Br)c3)ncnc2cn1
# output 0.1733

###

Target: EGFR N771dupN (Homo sapiens, UniProt P00533, DUP771-771)
Construct: expressed in transfected cells; host or cells: Ba/F3 cells, retroviral pBabe-Puro vector
Assay: Ba/F3 drug screening, Cell Titer Glo, IC50 Mut/WT
Assay type: cell-based
Conditions: Ex20, 72 hours
OBSERVATION TYPE: ratio of IC50 for cells with mutant EGFR to IC50 for cells with wildtype EGFR (Mut/WT)
Would you mind answering with just the numeric figure?

# input Entry C=CC(=O)N[C@H]1C=C(C)c2c(-c3cnc4ccccc4c3)c3c(N)ncnc3n2C1 : reported ratio of IC50 for cells with mutant EGFR to IC50 for cells with wildtype EGFR (Mut/WT) = ?
# output 0.05134

# input Entry Cc1cc(C(=O)Nc2nc3cccc(Cl)c3n2[C@@H]2CCCCN(C(=O)/C=C/CN(C)C)C2)ccn1 : reported ratio of IC50 for cells with mutant EGFR to IC50 for cells with wildtype EGFR (Mut/WT) = ?
# output 0.371

# input Entry COc1cc2ncnc(Nc3ccc(F)c(Cl)c3)c2cc1NC(=O)/C=C/CN1CCCCC1 : reported ratio of IC50 for cells with mutant EGFR to IC50 for cells with wildtype EGFR (Mut/WT) = ?
# output 6.261

# input Entry C=CC(=O)Nc1cc(Nc2nccc(-c3c[nH]c4ccccc34)n2)c(OC)cc1N(C)CCN(C)C : reported ratio of IC50 for cells with mutant EGFR to IC50 for cells with wildtype EGFR (Mut/WT) = ?
# output 0.6044

# input Entry COc1cc2ncnc(Nc3cccc(Cl)c3F)c2cc1OC(=O)N1CCN(C)C[C@H]1C : reported ratio of IC50 for cells with mutant EGFR to IC50 for cells with wildtype EGFR (Mut/WT) = ?
# output 1.567

# input Entry CN(C)C/C=C/C(=O)Nc1cc2c(Nc3ccc(Cl)c(Br)c3)ncnc2cn1 : reported ratio of IC50 for cells with mutant EGFR to IC50 for cells with wildtype EGFR (Mut/WT) = ?
# output 7.062

# input Entry C=CC(=O)N1CC[C@@H](Oc2nc(Nc3ccc(N4CCC(N5CCN(C)CC5)CC4)cc3)c(C(N)=O)nc2CC)C1 : reported ratio of IC50 for cells with mutant EGFR to IC50 for cells with wildtype EGFR (Mut/WT) = ?
# output 3.012

# input Entry C=CC(=O)Nc1cccc(Oc2nc(Nc3ccc(N4CCN(C)CC4)cc3)nc3ccsc23)c1 : reported ratio of IC50 for cells with mutant EGFR to IC50 for cells with wildtype EGFR (Mut/WT) = ?
# output 0.4208

# input Entry CNC(=O)CN1CCC(Oc2cc3c(Nc4cccc(Cl)c4F)ncnc3cc2OC)CC1 : reported ratio of IC50 for cells with mutant EGFR to IC50 for cells with wildtype EGFR (Mut/WT) = ?
# output 1.24

# input Entry C=CC(=O)Nc1cc(Nc2ncc(C(=O)OC(C)C)c(-c3cn(C)c4ccccc34)n2)c(OC)cc1N(C)CCN(C)C : reported ratio of IC50 for cells with mutant EGFR to IC50 for cells with wildtype EGFR (Mut/WT) = ?
# output 0.8508

###

Biological target: EGFR G719A L861Q (Homo sapiens, UniProt P00533, G719A/L861Q)
Construct: expressed in transfected cells; host or cells: Ba/F3
Assay: Ba/F3 drug screening, Cell Titer Glo, IC50 Mut/WT
Type: cell-based
Conditions: PACC; G719A L861Q; Ba/F3; 72 hours
What ratio of IC50 for cells with mutant EGFR to IC50 for cells with wildtype EGFR (Mut/WT) was measured for each of the following?
Would you mind answering with just the numeric figure?

# input # value lookup — system EGFR G719A L861Q (Homo sapiens, UniProt P00533, G719A/L861Q), readout ratio of IC50 for cells with mutant EGFR to IC50 for cells with wildtype EGFR (Mut/WT), item COc1cc2ncnc(Nc3cccc(Cl)c3F)c2cc1OC(=O)N1CCN(C)C[C@H]1C
# output 0.07458

# input # value lookup — system EGFR G719A L861Q (Homo sapiens, UniProt P00533, G719A/L861Q), readout ratio of IC50 for cells with mutant EGFR to IC50 for cells with wildtype EGFR (Mut/WT), item CN(C)C/C=C/C(=O)Nc1cc2c(Nc3ccc(Cl)c(Br)c3)ncnc2cn1
# output 0.4976

# input # value lookup — system EGFR G719A L861Q (Homo sapiens, UniProt P00533, G719A/L861Q), readout ratio of IC50 for cells with mutant EGFR to IC50 for cells with wildtype EGFR (Mut/WT), item CNC(=O)CN1CCC(Oc2cc3c(Nc4cccc(Cl)c4F)ncnc3cc2OC)CC1
# output 0.04615

# input # value lookup — system EGFR G719A L861Q (Homo sapiens, UniProt P00533, G719A/L861Q), readout ratio of IC50 for cells with mutant EGFR to IC50 for cells with wildtype EGFR (Mut/WT), item COc1cc2ncnc(Nc3ccc(F)c(Cl)c3)c2cc1NC(=O)/C=C/CN1CCCCC1
# output 0.002249

###

Molecular target: EGFR L858R/T790M/C797S (Homo sapiens, UniProt P00533, C797S/L858R/T790M)
Construct: expressed in transfected cells; host or cells: Ba/F3
Assay: Ba/F3 drug screening, Cell Titer Glo, IC50 Mut/WT
Format: cell-based
Settings: T790M-like-3R, 72 hours
# if measured ratio of IC50 for cells with mutant EGFR to IC50 for cells with wildtype EGFR (Mut/WT) < 20: label 1  # else: label 0

# input Confirm or reject: ratio of IC50 for cells with mutant EGFR to IC50 for cells with wildtype EGFR (Mut/WT) of Cc1cc(C(=O)Nc2nc3cccc(Cl)c3n2[C@@H]2CCCCN(C(=O)/C=C/CN(C)C)C2)ccn1 lies strictly below 20
# output label 1

# input Confirm or reject: ratio of IC50 for cells with mutant EGFR to IC50 for cells with wildtype EGFR (Mut/WT) of C=CC(=O)Nc1cc(Nc2ncc(C(=O)OC(C)C)c(-c3cn(C)c4ccccc34)n2)c(OC)cc1N(C)CCN(C)C lies strictly below 20
# output label 0

# input Confirm or reject: ratio of IC50 for cells with mutant EGFR to IC50 for cells with wildtype EGFR (Mut/WT) of C=CC(=O)Nc1cc(Nc2nccc(-c3c[nH]c4ccccc34)n2)c(OC)cc1N(C)CCN(C)C lies strictly below 20
# output label 0

# input Confirm or reject: ratio of IC50 for cells with mutant EGFR to IC50 for cells with wildtype EGFR (Mut/WT) of C=CC(=O)Nc1cccc(Oc2nc(Nc3ccc(N4CCN(C)CC4)cc3)nc3ccsc23)c1 lies strictly below 20
# output label 1

# input Confirm or reject: ratio of IC50 for cells with mutant EGFR to IC50 for cells with wildtype EGFR (Mut/WT) of C=CC(=O)N[C@H]1C=C(C)c2c(-c3cnc4ccccc4c3)c3c(N)ncnc3n2C1 lies strictly below 20
# output label 1

# input Confirm or reject: ratio of IC50 for cells with mutant EGFR to IC50 for cells with wildtype EGFR (Mut/WT) of COc1cc2ncnc(Nc3ccc(F)c(Cl)c3)c2cc1NC(=O)/C=C/CN1CCCCC1 lies strictly below 20
# output label 0

# input Confirm or reject: ratio of IC50 for cells with mutant EGFR to IC50 for cells with wildtype EGFR (Mut/WT) of CN(C)C/C=C/C(=O)Nc1cc2c(Nc3ccc(Cl)c(Br)c3)ncnc2cn1 lies strictly below 20
# output label 0

# input Confirm or reject: ratio of IC50 for cells with mutant EGFR to IC50 for cells with wildtype EGFR (Mut/WT) of CNC(=O)CN1CCC(Oc2cc3c(Nc4cccc(Cl)c4F)ncnc3cc2OC)CC1 lies strictly below 20
# output label 0

# input Confirm or reject: ratio of IC50 for cells with mutant EGFR to IC50 for cells with wildtype EGFR (Mut/WT) of C=CC(=O)Nc1cc(Nc2nccc(-n3cc(CN(C)C)c(-c4ccccc4)n3)n2)c(OC)cc1N1CCOCC1 lies strictly below 20
# output label 0

# input Confirm or reject: ratio of IC50 for cells with mutant EGFR to IC50 for cells with wildtype EGFR (Mut/WT) of C=CC(=O)N1CC[C@@H](Oc2nc(Nc3ccc(N4CCC(N5CCN(C)CC5)CC4)cc3)c(C(N)=O)nc2CC)C1 lies strictly below 20
# output label 0

# input Confirm or reject: ratio of IC50 for cells with mutant EGFR to IC50 for cells with wildtype EGFR (Mut/WT) of COc1cc2ncnc(Nc3cccc(Cl)c3F)c2cc1OC(=O)N1CCN(C)C[C@H]1C lies strictly below 20
# output label 1
